# System: c-fos mRNA
# assay: c-fos mRNA expression in TPA-induced A549 cells, Northern blotting
# Format: cell-based, human
# conditionSet: Table 5; TPA - no oligo = 100, basal = 5; A549 cells
Strand notation (5' to 3'): a small letter for the sugar, then the base; units joined by * are phosphorothioate-linked, units joined directly phosphodiester-linked; [ ] holds rarer units or linkages, { } end groups; capitals alone tell only the bases. d = 2'-deoxy (DNA)
measuredQuantity: c-fos (mRNA level, specificity experiment)

>>> quantitativereadout("TCG-GCA-CCT-GAA-GGA-CTT-TC (dT*dC*dG*dG*dC*dA*dC*dC*dT*dG*dA*dA*dG*dG*dA*dC*dT*dT*dT*dC; antisense) [ISIS 11564]")
99
>>> quantitativereadout("CAC-CTC-CAC-GCG-CTT-CTG-GC (dC*dA*dC*dC*dT*dC*dC*dA*dC*dG*dC*dG*dC*dT*dT*dC*dT*dG*dG*dC; antisense) [ISIS 11563]")
99
>>> quantitativereadout("ACG-TCC-GAT-TCC-GAG-CGC-AA (ACGTCCGATTCCGAGCGCAA; antisense; DNA, all phosphorothioate, methylation of C not given here) [ISIS 11186]")
98
>>> quantitativereadout("GAG-AGA-CCG-TCG-GGC-GCT-GA (GAGAGACCGTCGGGGGCTGA; listed as DNA, chemistry not given here) [ISIS 11562]")
89
>>> quantitativereadout("AAG-TCC-TTG-AGG-CCC-ACA-GC (AAGTCCTTGAGGCCCACAGC; antisense; all phosphorothioate, sugars by position and methylation of C not given here) [ISIS 10639]")
9

----------
# c-fos mRNA % CONTROL per record follows
# System: c-fos mRNA
# assay: c-fos mRNA expression in TPA-induced A549 cells, Northern blotting
# Type: cell-based, human
# conditionSet: 400 nM oligonucleotide with LIPOFECTIN; control is TPA induction, at 1 hour, in A549 cells
measuredQuantity: c-fos mRNA % CONTROL (% CONTROL)

>>> quantitativereadout("TGC-TCG-CTG-CAC-ATG-CGG-TT (TGCTCGCTGCACATGCGGTT; antisense; all phosphorothioate, sugars by position and methylation of C not given here) [ISIS 10628]")
79
>>> quantitativereadout("ACC-GTG-GGA-ATG-AAG-TTG-GC (ACCGTGGGAATGAAGTTGGC; antisense; all phosphorothioate, sugars by position and methylation of C not given here) [ISIS 10632]")
63

----------
# Tested on: c-Fos protein
# assay: c-Fos protein levels in TPA-induced A549 cells, immunoblot
# Type: cell-based, human
# conditionSet: Table 7; TPA (1 uM) for three hours; TPA - no oligo = 100, basal = 21
Documented c-Fos (protein level) across a set of substances
measuredQuantity: c-Fos (protein level)

>>> quantitativereadout("ATG-TGC-TAG-ATG-CGC-AAA-GT (ATGTGCTAGATGCGCAAAGT; antisense; DNA, all phosphorothioate, methylation of C not given here) [ISIS 11185]")
91
>>> quantitativereadout("ACG-TCC-GAT-TCC-GAG-CGC-AA (ACGTCCGATTCCGAGCGCAA; antisense; DNA, all phosphorothioate, methylation of C not given here) [ISIS 11186]")
99
>>> quantitativereadout("AAG-TCC-TTG-AGG-CCC-ACA-GC (AAGTCCTTGAGGCCCACAGC; antisense; all phosphorothioate, sugars by position and methylation of C not given here) [ISIS 10639]")
19
>>> quantitativereadout("GCT-GTG-GGC-CTC-AAG-GAC-TT (GCTGTGGGCCTCAAGGACTT; antisense; DNA, all phosphorothioate, methylation of C not given here) [ISIS 11184]")
97
